// data source = PubChem BioAssay (NCATS)

# Assay text: qHTS of pediatric cancer cell lines to identify multiple opportunities for drug repurposing: Primary screen for OHS-50 cells (AID 1347103); further: nearly all actives have a fitted effect of over 40% in size
# Condition label: OHS-50 osteosarcoma viability, CellTiter-Glo luminescence, 48 h; series mostly up to 57.3 µM
Inconclusive results are not listed. The source made the active and inactive calls. The call rests on the fitted dose curve; in most records, active means well fitted cell-killing curve with a large enough effect; inconclusive means small, poorly fitted or top-dose-only effect; inactive means no such curve, though single readings can be large or run the other way.
Possible outcomes: active, inactive

molecule=CN(C)C(=S)SSC(=S)N(C)C class_name=active
molecule=C[C@]12Cc3nonc3C[C@@H]1CC[C@@H]1[C@@H]2CC[C@@]2(C)[C@H]1CC[C@]2(C)O class_name=active
molecule=CC(=O)OC1(c2ccccc2)CCN(CCc2ccccc2)CC1 class_name=active
molecule="Nc1ccccc1C(=O)OCC(O)CO (stereo unspecified)" class_name=inactive
molecule=C[C@]12CC[C@H]3[C@@H](CC=C4C[C@@H](O)CC[C@@]43C)[C@@H]1CC[C@@H]2O class_name=inactive
molecule="CCOC(=O)NC(O)C(Cl)(Cl)Cl (stereo unspecified)" class_name=inactive
molecule="ClC1=C(Cl)C2(Cl)C(CBr)CC1(Cl)C2(Cl)Cl (stereo unspecified)" class_name=inactive
molecule=NC(=O)CN1CCCC1=O class_name=inactive
molecule="C[C@@H]1CN(C2CCC(C#N)(c3ccc(F)cc3)CC2)CC[C@]1(C(=O)O)c1ccccc1 (stereo partly specified)" class_name=inactive
molecule=c1cc2c(c(N3CCNCC3)c1)OCCO2 class_name=inactive
molecule=Sc1ccccc1Cl class_name=inactive
molecule=CN(C)CCc1c[nH]c2cccc(O)c12 class_name=inactive
molecule="c1ccc2c(c1)Sc1ccccc1N2CC1CN2CCC1CC2 (stereo unspecified)" class_name=active
molecule=CN(C)CCc1c[nH]c2ccc(O)cc12 class_name=inactive
molecule=C[C@]12CC[C@H]3[C@@H](CCC4=CC(=O)CC[C@@]43C)[C@@H]1CC[C@@H]2C(=O)O class_name=inactive
molecule="CNC(=O)NC(O)C(Cl)(Cl)Cl (stereo unspecified)" class_name=inactive
molecule=CCO[C@H]1O[C@@H]2OC3(C)CC[C@H]4[C@H](C)CC[C@@H]([C@H]1C)[C@@]24OO3 class_name=active
molecule=C[C@@H]1O[C@@H](O[C@@H]2C=C3CC[C@@H]4[C@H](CC[C@]5(C)[C@@H](c6ccc(=O)oc6)CC[C@]45O)[C@@]3(C)CC2)[C@H](O)[C@H](O)[C@H]1O class_name=active
molecule=COc1ccc2c3c1O[C@H]1[C@@H](O)C=C[C@H]4[C@@H](C2)N(C)CC[C@@]341 class_name=active
molecule=CCC1(CC)C(=O)NC(=O)NC1=O class_name=inactive
molecule=COc1cc(CC#N)cc(OC)c1OC class_name=inactive
molecule=COP(=O)(OC)OC=C(Cl)Cl class_name=inactive
molecule=COP(=S)(OC)Oc1ccc(Sc2ccc(OP(=S)(OC)OC)cc2)cc1 class_name=inactive
molecule="CC(C)C(Br)C(=O)NC(N)=O (stereo unspecified)" class_name=inactive
molecule="COCC(=O)N(c1c(C)cccc1C)C(C)C(=O)OC (stereo unspecified)" class_name=inactive
molecule="CC1Sc2c(C(=O)O)c(=O)c3cc(F)c(N4CCNCC4)cc3n21 (stereo unspecified)" class_name=inactive
molecule=CC[n+]1c(-c2ccccc2)c2cc(N)ccc2c2ccc(N)cc21 class_name=active
molecule="CNC(C)Cc1ccc2c(c1)OCO2 (stereo unspecified)" class_name=inactive
molecule=COc1ccc(CN2CCNCC2)c(OC)c1OC class_name=inactive
molecule="CC(Cc1ccc2c(c1)OCO2)NO (stereo unspecified)" class_name=inactive
molecule="COc1cc(N)c(Cl)cc1C(=O)NC1CN2CCC1CC2 (stereo unspecified)" class_name=inactive
molecule=O=C(O)c1nn(Cc2ccc(Cl)cc2Cl)c2ccccc12 class_name=inactive
molecule="CNC(C)Cc1ccccc1OC (stereo unspecified)" class_name=inactive
molecule=NCc1cccnc1 class_name=inactive
molecule=CNC(=O)Oc1cccc2ccccc12 class_name=inactive
molecule=COc1ccc(C(=O)N2CCCC2=O)cc1 class_name=inactive
